- tested-on: CIB1 and αIIb interaction (CIB1-GST : F-αIIb peptide) (Homo sapiens, UniProt Q99828)
- Construct: made in house; host or cells: BL-21 plus RIL cells (E. coli)
- Sequence (Q99828 whole entry): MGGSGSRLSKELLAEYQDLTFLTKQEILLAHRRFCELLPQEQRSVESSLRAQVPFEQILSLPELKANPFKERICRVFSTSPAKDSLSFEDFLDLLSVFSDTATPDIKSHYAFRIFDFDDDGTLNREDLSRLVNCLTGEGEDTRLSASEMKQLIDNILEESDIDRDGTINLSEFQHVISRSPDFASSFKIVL
- test: FP assay, 1536-well qHTS format (primary and confirmatory screen)
- Assay type: binding
- experimental-parameters: qHTS primary screen hits, Table S2; negative sign = inhibitory curve; several classes where COUNT > 1
endpoint: Curve Class
// no unit string in output, number only

INSERT INTO measurements (compound, tested_on, experimental_value) VALUES
  ('O=C(O)C(F)(F)F.O=S(=O)(Nc1ccc(N2CCNCC2)cc1)c1ccc(NCc2ccc(Br)cc2O)cc1 [NCGC00343874-01]', 'CIB1 and αIIb interaction (CIB1-GST : F-αIIb peptide) (Homo sapiens, UniProt Q99828)', -2.2),
  ('O=C(O)C(F)(F)F.O=C1c2ccccc2NC(c2ccc(-c3cccc([N+](=O)[O-])c3)o2)N1O (stereo not shown) [NCGC00183384-01]', 'CIB1 and αIIb interaction (CIB1-GST : F-αIIb peptide) (Homo sapiens, UniProt Q99828)', -2.4),
  ('Cc1cc2nc3ccc(N(C)C)cc3[s+]c2cc1N.Cl.[Cl-] [NCGC00181775-02]', 'CIB1 and αIIb interaction (CIB1-GST : F-αIIb peptide) (Homo sapiens, UniProt Q99828)', -2.4);

Field Curve Class (entry CCc1nnc(Nc2ncnc3scc(-c4cccc(S(C)(=O)=O)c4)c23)s1.O=C(O)C(F)(F)F [NCGC00188733-01] ) reads -2.2

====

- tested-on: GST-CIB1 : F-scrambled peptide (Homo sapiens)
- Construct: made in house; host or cells: BL-21 plus RIL cells (E. coli)
- Sequence (Q99828 whole entry): as above
- test: FP scrambled-peptide counter screen, 1536-well format
- Assay type: binding
- experimental-parameters: Table S3, counterscreen, qHTS curve class; a negative sign marks inhibitory curves
endpoint: Curve Class (counterscreen)

INSERT INTO measurements (molecule, experimental_value) VALUES
  ('O=C(O)C(F)(F)F.O=S(=O)(NCc1nccs1)c1ccc(Nc2nc(-c3ccccc3)cs2)cc1', -2.2),
  ('O=C(O)C(F)(F)F.O=C1CCCC2=C1C(c1n[nH]cc1Cl)NC(Nc1nc3ccccc3o1)=N2 (centres unmarked)', -1.2),
  ('COc1ccc2nc3[nH]nc(C)c3c(NCCOCCO)c2c1', -2.2),
  ('COC(=O)c1scc2c(O)cc(C(F)(F)F)nc12', -3),
  ('CC(=O)Nc1sc2c(c1-c1nc3ccccc3s1)CNC2.O=C(O)C(F)(F)F', -2.4),
  ('C=C1C(=O)OC2C(OC(=O)C=C(C)C)C(C)=C3C(=O)C=C(C)C3C(O)C12 (centres unmarked)', -1.2);

Field Curve Class (counterscreen) (entry CC(=O)[O][Hg][c]1ccccc1 ) reads 2.3

Field Curve Class (counterscreen) (entry Cc1c(Cc2ccc3ccccc3n2)c2cc(F)ccc2n1CC(=O)O ) reads -2.1

====

- tested-on: CIB1 and αIIb interaction (CIB1-GST : F-αIIb peptide) (Homo sapiens)
- Construct: made in house; host or cells: BL-21 plus RIL cells (E. coli)
- test: FP assay, 1536-well qHTS format (primary and confirmatory screen)
- Assay type: binding
- experimental-parameters: qHTS primary screen hits, Table S2; negative sign = inhibitory curve; several classes where COUNT > 1
Known Curve Class of a selection of molecules
// no unit string in output, number only

INSERT INTO measurements (molecule, endpoint, experimental_value) VALUES
  ('CN1CCN(CCC(=O)N2c3ccccc3Sc3ccc(C(F)(F)F)cc32)CC1.Cl [NCGC00160483-02]', 'Curve Class', -2.4);

Form field, Curve Class with CIB1 and αIIb interaction (CIB1-GST : F-αIIb peptide) (Homo sapiens), item COc1cc(C(=O)NS(=O)(=O)c2ccccc2C)ccc1Cc1cn(C)c2ccc(NC(=O)OC3CCCC3)cc12 [NCGC00164547-06] : -2.4

Form field, Curve Class with CIB1 and αIIb interaction (CIB1-GST : F-αIIb peptide) (Homo sapiens), item O=C(O)C(F)(F)F.O=S(=O)(Nc1nccs1)c1ccc(NCc2cc(F)cc(Cl)c2O)cc1 [NCGC00273967-01] : -1.4

Form field, Curve Class with CIB1 and αIIb interaction (CIB1-GST : F-αIIb peptide) (Homo sapiens), item O=C(O)C(F)(F)F.O=C1Nc2ccccc2/C1=N/NC(=S)Nc1ccccc1 [NCGC00229542-01] : -1.4

Form field, Curve Class with CIB1 and αIIb interaction (CIB1-GST : F-αIIb peptide) (Homo sapiens), item CSc1cc2c(s1)c1cnn(Cc3cccc(N)c3)c(=O)c1n2C.O=C(O)C(F)(F)F [NCGC00188341-01] : -1.2

Form field, Curve Class with CIB1 and αIIb interaction (CIB1-GST : F-αIIb peptide) (Homo sapiens), item Cc1ccc(C)n1-c1ccccc1C(=O)O.O=C(O)C(F)(F)F [NCGC00274054-01] : -2.4

Form field, Curve Class with CIB1 and αIIb interaction (CIB1-GST : F-αIIb peptide) (Homo sapiens), item CC(=O)N1CCN(c2ccc(NC[C@H]3CO[C@](Cn4ccnc4)(c4ccc(Cl)cc4Cl)O3)cc2)CC1 [NCGC00250372-03] : -2.4
